- Test system: MSCs
- ASSAY OVERVIEW: Relative potency: ALP assay after short exposure times, then basal media to assay completion
- Type: cell-based, human
- CONDITION PARAMETERS: MSCs, 24 hr exposure, then basal media; read-out: EC50 24 hr.
OBSERVABLE: EC50 (pM)
Please give a number only; it is taken to be in pM.

Kindly note the recorded EC50 for CCC(=O)O[C@]1(C(=O)SCF)[C@H](C)C[C@H]2[C@@H]3C[C@H](F)C4=CC(=O)C=C[C@]4(C)[C@@]3(F)[C@@H](O)C[C@@]21C [Fluticasone propionate] , which is 67.6
